B1: Mannose-1-phosphate guanylyltransferase regulatory subunit alpha (Homo sapiens), Q96IJ6-1 (parent)
chain: MLKAVILIGGPQKGTRFRPLSFEVPKPLFPVAGVPMIQHHIEACAQVPGMQEILLIGFYQPDEPLTQFLEAAQQEFNLPVRYLQEFAPLGTGGGLYHFRDQILAGSPEAFFVLNADVCSDFPLSAMLEAHRRQRHPFLLLGTTANRTQSLNYGCIVENPQTHEVLHYVEKPSTFISDIINCGIYLFSPEALKPLRDVFQRNQQDGQLEDSPGLWPGAGTIRLEQDVFSALAGQGQIYVHLTDGIWSQIKSAGSALYASRLYLSRYQDTHPERLAKHTPGGPWIRGNVYIHPTAKVAPSAVLGPNVSIGKGVTVGEGVRLRESIVLHGATLQEHTCVLHSIVGWGSTVGRWARVEGTPSDPNPNDPRARMDSESLFKDGKLLPAITILGCRVRIPAEVLILNSIVLPHKELSRSFTNQIIL

# Variants of: B1
# Run conditions: with GMPPB

Sequence variant: E85K;Q247A
effect of a mutation on the interaction: with no effect

Sequence variant: R318E
effect of a mutation on the interaction: disrupting interaction

Sequence variant: E396R
effect of a mutation on the interaction: with no effect

Sequence variant: W350A;R352A
effect of a mutation on the interaction: disrupting interaction

Measured values drawn from IntAct's records for PubMed 33986552 for this set.
